System: HT-29
Test: NCI tumour cell line growth inhibition, 48 h
Activity calls are given as the source filed them. Rule as the data show it: active = GI50 up to about 1.1 µM and inactive = higher.
Give your call using only these classes: active, inactive

Problem: Called result for O=CN/C=C/c1ccccc1O
Result: inactive

Further cases:
Problem: Dear all, I need the recorded test outcome for OCC1OC(NCCNCCNC2OC(CO)C(O)C(O)C2O)C(O)C(O)C1O (stereo not drawn) , thank you.
Result: inactive

Problem: Please share the test call associated with CC12CCCC(C#N)(C1)OC2=O (stereo not drawn) .
Result: inactive

Problem: # outcome recorded in this test, key = CCOC(=O)O/C(=C\c1ccc(OC)cc1)c1c(OC(=O)OCC)n(C(=O)OCC)c2ccccc12
Result: inactive

Problem: Field: outcome | Entry: NCCN/C(=N\c1ccccc1)Nc1ccccc1
Result: inactive

Problem: # outcome recorded in this test, key = CCCCCC(=O)N[C@@H](c1ccccc1)C(O)C(=O)OC1C[C@@]2(O)C(OC(=O)c3ccccc3)C3[C@](C)(C(=O)[C@H](O)C(=C1C)C2(C)C)C(OC1OCC(O)C(O)C1O)C[C@H]1OC[C@@]31OC(C)=O (stereo partly drawn)
Result: inactive

* * *

Consider the following molecules and their measured GI50 readings.
Test system: CAKI-1
Experiment: NCI tumour cell line growth inhibition, 48 h
The source made the active and inactive calls. Rule as the data show it: active = GI50 up to about 1.1 µM and inactive = higher.

Problem: // lookup GI50 for Cn1c2ccccc2n2c(=O)c(-c3ccc(O)cc3)nnc12
Result: 27.7 µM (inactive)

Problem: What value of GI50 has been recorded for this entry: COc1ccc2c(c1)C(=O)CC1c3cnccc3C(=O)N21 (stereo unspecified)
Result: > 100 µM (inactive)

Problem: // query GI50 value for entry O=C1c2scnc2-c2nccc3c2c1nc1ccccc13 [KUANONIAMINE A]
Result: 1.63 µM (inactive)

Problem: Query (molecule): O=C1c2ccc3cc(CCl)cc(O)c3c2C(=O)c2cccc(O)c21 ; field requested: GI50
Result: > 10 µM (inactive)

Problem: Need GI50, item C=C(Br)CN(C#N)CC(=C)Br
Result: > 100 µM (inactive)

Problem: May I ask what GI50 has been recorded for COC(=O)C1=NN2c3ccccc3CN([C@@H](C)c3ccccc3)C(=O)[C@H]2[C@@H]1C ?
Result: 33.7 µM (inactive)

* * *

Reported values: GI50 for HCT-15, one per item.
Just the number please, in µM, no unit attached.

Problem: Give GI50 (HCT-15) of the following compound: O=C1c2ccccc2C(=O)c2sc(Nc3ccccc3Cl)nc21
Result: 9.38

Further cases:
Problem: Param readout = GI50; param system = HCT-15; param query = COc1ccc(/C=C2\CCCC(CN(C)C)C2=O)cc1 (stereo unspecified) ; response: value
Result: 1.24

* * *

Test system: UACC-62
Experiment: NCI tumour cell line growth inhibition, 48 h
Activity calls are given as the source filed them. No stated cut-off is given here; in the data, active = GI50 up to about 1.1 µM and inactive = higher.
Allowed answers: y for active, n for inactive

Problem: Give the logged outcome of this assay for the following compound: CCC[N+](C)(C)CCCNC(=O)c1c(O)c2ccccc2[nH]c1=O
Result: n

Next:
Problem: Returns: the outcome recorded for O=C(Nc1ccn(CCOC(=O)c2ccccc2)c(=O)n1)c1ccccc1 in this assay.
Result: n

Problem: So what was the verdict on COc1ccc2c(c1)C(=O)CC1c3cnccc3C(=O)N21 (stereo not given) in this test?
Result: n

Problem: Could you kindly confirm the outcome this assay logged for COc1ccc2c(c1)C=C([N+](=O)[O-])C(C1OC(C)(C)OC1C1COC(C)(C)O1)O2 (stereo not given) ?
Result: n

Problem: Please let me know the test result on file for COc1cc(C2S/C(=C/c3ccccc3)C(=O)N2c2cccc([N+](=O)[O-])c2)cc(OC)c1OC (stereo not given) .
Result: n

Problem: Please state the recorded outcome for this compound: O=S(=O)(c1ccccc1)C1CN2OC1(S(=O)(=O)c1ccccc1)CC2c1ccc(Br)cc1 (stereo not given)
Result: n

Problem: What is the recorded call for this compound in the test? CN(C)CCNc1ccc2c(=O)n(CCN(C)C)c(=O)n3c4ccccc4c(=O)c1c23
Result: y

Problem: Short answer needed: outcome of this test for O=C(Cc1ccccc1)c1ccc2[nH]c(=O)oc2c1 ?
Result: n

Problem: Check the results log: what was the call for COc1ccc(OC)c(C2CCc3nc4nc(N)nc(N)c4cc3C2)c1 (stereo not given) ?
Result: n

Problem: Could you please tell me the result logged for O=c1nc2n(c3nsnc13)CCO2 in this assay?
Result: n
